Ref: PubChem BioAssay

Exercise: state measured z-score for each of the compounds provided.
Experiment: basal MM1S mitochondrial membrane potential changes, profiling panel, cell-based, JC-1 fluorescence, 24 h, 100 nL compound (AID 1170); further: test concentration not given here
Conditions: higher = more signal
The reply should be a number, written without any unit.

Record COc1ccc(COC(=O)NN=C2C[C@@H](O)[C@@H](O)[C@@H]3[C@@H]4C(=O)N(Cc5ccccc5)C(=O)[C@@H]4CC[C@H]23)cc1 . Reported z-score: -0.592

Lab book: z-score of CC[C@@H](c1ccccc1)n1c(=O)n2n(c1=O)[C@H]1[C@H](O)[C@@H]3O[C@@H]3C(=O)[C@H]1CC2 noted as -1.72

Briefly, z-score measured for O=C1[C@H]2[C@H]3[C@H](O)[C@H](O)CC(=NOCc4ccccc4)[C@H]3CC[C@H]2C(=O)N1Cc1ccc2c(c1)OCO2 : 0.349

Entry CC(=O)Nc1ccc([C@@H]2N[C@H](C(=O)O)CC[C@H]2C)cc1 — recorded z-score = -0.0501

###

Would you mind telling me the reported z-score of each entry?
Test: E. coli acrAB mutant growth effects, primary screen, E. coli filamentation inducers, strain DRC39, OD650, 48 h (AID 1179);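 further: screen aims at cell division blockers that make cells filament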
Conditions: E. coli DRC39 delta-acrAB growth, higher = more signal, called active from +8 up or from −8 down
Enter the number alone.

Consider CO[C@@H]1COC(=O)[C@@H](C)COC(=O)[C@@H](C)NC(=O)CC=C[C@@H]1C . Its measured z-score is -1.13

What the record says about O=C1CCCC=C1C(O)CCOC(c1ccccc1)(c1ccccc1)c1ccccc1 (stereo not given) : z-score is -0.356

// COc1ccc(O[C@H]2C=C[C@@H](c3ccccc3)O[C@@H]2CON=C(C)C)cc1 : z-score value = -1.8

For record C[C@H](ON=C1[C@H]2CCn3c(=O)n(-c4ccccc4)c(=O)n3[C@H]2[C@H](O)[C@@H]2O[C@H]12)c1cn([C@H](CO)Cc2ccccc2)nn1 the listed z-score is 0.223

# compound CO[C@@H]1C=CCC(=O)N[C@@H](C)C(=O)OC[C@@H](OC)[C@H](C)CCCC(=O)OC[C@H]1C ; its z-score = 0.174

Sure, the documented z-score for COC(=O)[C@H](C)NC(=O)CCC1CC(OC(=O)NCc2ccc3c(c2)OCO3)CC2(CCCC(COC(=O)NCc3cccc(C(F)(F)F)c3)O2)O1 (stereo not given in full) is 0.079

The reported value for CC(CCN1CCCCc2nc(C)c(C)cc21)=NO[C@H](C)c1cn([C@H](CO)Cc2ccccc2)nn1 in terms of z-score is -0.488

Recorded z-score (compound CCC(=O)[C@@]1(O)C(=O)N2C(=C3C(=O)OCC[C@@H]31)N(Cc1ccccc1)C(C)=C(C(=O)OC)[C@H]2c1ccccc1 ): -0.247

Briefly, z-score measured for Cn1c(=O)n2n(c1=O)[C@H]1[C@H](O)[C@@H]3O[C@@H]3C(=NOCc3ccccc3)[C@H]1CC2 : -0.265

// recorded z-score for COc1cccc([C@H]2Oc3ccc(OC)cc3C(=NOC(C)CN3CCCCc4nc(C)c(C)cc43)[C@@H]2O)c1 (stereo not given in full) : 0.748

Short answer for CC(=O)OC[C@H]1OC(ON=CC[C@@H]2C=C[C@H](OC(C)=O)[C@@H](COC(C)=O)O2)[C@H](OC(C)=O)[C@@H](OC(C)=O)[C@@H]1OC(C)=O (stereo not given in full) : z-score was 0.583

Consider CC1O[C@H]2C3=C(C(=O)[C@@H]4O[C@@H]4[C@H]3O)[C@@H]1C1[C@@H](C)OC=C3[C@H](O)C4O[C@@H]4C(=NOCc4ccccc4)[C@]312 (stereo not given in full) . Its measured z-score is -0.123

// sample CC(CCN1CCCCc2nc(C)c(C)cc21)=NO[C@@H](C)c1cn([C@H](CO)Cc2ccccc2)nn1 , its z-score was 1.46

Form: compound = O=C(NN=C1C[C@@H](O)[C@@H](O)[C@@H]2[C@@H]3C(=O)N(C4CCCCC4)C(=O)[C@@H]3CC[C@@H]12)OCc1ccccc1 ; z-score = 0.332

O=C1[C@H]2[C@H]3[C@H](O)[C@H](O)CC(=NOC[C@@H](O)COCc4ccco4)[C@H]3CC[C@H]2C(=O)N1Cc1ccccc1 has a reported z-score of -0.22
